Measured values drawn from ChEMBL document CHEMBL1275468 for this set.

Quick reference for MIC among some compounds
System: Enterobacter cloacae
Assay: Antimicrobial activity against Enterobacter cloacae isolate 656 containing PFGE genetic clone A expressing beta-lactamase KPC-2 and SHV-12 gene by Etest
Type: functional

Answered cases to consult:
Compound	Observed Result
CCN1CCN(C(=O)N[C@@H](C(=O)N[C@@H]2C(=O)N3[C@@H]2SC(C)(C)[C@@H]3C(=O)O)c2ccccc2)C(=O)C1=O [PIPERACILLIN]	≥ 128 µg/mL
CC(C)(O/N=C(\C(=O)N[C@@H]1C(=O)N2C(C(=O)[O-])=C(C[n+]3ccccc3)CS[C@H]12)c1csc(N)n1)C(=O)O [CEFTAZIDIME]	≥ 64 µg/mL

--- query ---
Q: Write down MIC measured for item NCC[C@H](O)C(=O)N[C@@H]1C[C@H](N)[C@@H](O[C@H]2O[C@H](CN)[C@@H](O)[C@H](O)[C@H]2O)[C@H](O)[C@H]1O[C@H]1O[C@H](CO)[C@@H](O)[C@H](N)[C@H]1O [AMIKACIN]
Ans: ≤ 2 µg/mL
